// reported kon for each item listed
testSystem: MD145 virus-like particle (GII.4, capsid protein VP1) (Norovirus GII.4 strain MD145-12)
experimentalProtocol: SPR (Biacore 1000), Fab on MD145 virus-like particle
Numbers only here, please. The scale is M⁻¹ s⁻¹.

Below, 2 binders whose answers are already recorded.
- binder: "anti-GII.4 NV Fab C9 (Fab, V domains shown) VH: EVQLEESGGVLVKPGGSLRLSCAASGFTFSSHAMHWVRQAPGKGLEWVAIINSGHRADYADSVKDRFTISRDNSKNTLYLQMDSLRPEDTAFYYCAREGDQQDVAD VL: ELTQSPSTLSASVGDRVTITCRASEDIMSYLAWYQQKPAKAPRLLIYYASSLQSGVPSRFSGSGSGTEFTLTISSLQPEDFATYYCQQLHTFPITFGPGTRLDIKRT"
  unitSymbol: "M⁻¹ s⁻¹"
  kon: 138000
- binder: "anti-GII.4 NV Fab G3 (Fab, V domains shown) VH: EVQLEQSGGGLVKPGGSLRLSCAGSGFSFSAHTINWVRQAPGKGLEWVGFIRSQAQGGTREYAASVKGRIILSRDDSENSAYLQMNSLNTGDTAVYYCARDSSRGYYSYYLDVWGKGTTVTVSS VL: ELTQSPSSLSASVGDRVTITCRASQGISNRLNWYQQKPGKAPKLLIYDASSLESGVPSRFSGSGSGTDFTLTISSQQPEDFATYYCQQFNSYPLTFGGGTKVEIKR"
  unitSymbol: "M⁻¹ s⁻¹"
  kon: 162000

## Task What value of kon has been recorded for this entry: anti-GII.4 NV Fab B72 (Fab, V domains shown) VH: EVQLEQSGAEVKKPGSSVKVSCKISGGTFSRHPISWVRQAPGQGLLWMGAIILRAGTTKYEQRFQGRITITADESTGTAYMELHSLTSEDTGLYFCATDRMGTFDELLFDSWGQGTLVTVSS VL: ELQMTQSPASLSASVGDRVTITCRASQGIRNNLGWYQQKPGKPPKLLIYAASTLQSGVPSRFSGSGSGTGFTLTISSLQPEDFATYYCLQDYDFPLTFGGGTKVEIKR
## Result 161000
